tested on: HCI-027 (organoid from a triple-negative breast cancer xenograft); experiment: CTG-3D luminescence at 96 h relative to day-0 seeding control (ratio to day 0); higher = more growth / less cytotoxicity; PDxO 3D drug screen, 96 h, CTG-3D normalised to day-0 seeding control.; conditions: 0.1 µM; days in culture: 176
Tag: true (1) if measured CTG-3D luminescence at 96 h is not below 0.3, false (0) if it is.

>  <compound>
O=C(c1ccc(F)c(F)c1Nc1ccc(I)cc1F)N1CC(O)([C@@H]2CCCCN2)C1

>  <class name>
true (1)

$$$$
>  <compound>
NC(=O)Nc1cc(-c2cccc(F)c2)sc1C(=O)N[C@H]1CCCNC1

>  <class name>
false (0)

$$$$
>  <compound>
C[C@]12CC[C@@H]3c4ccc(O)cc4C[C@@H](CCCCCCCCC[S+]([O-])CCCC(F)(F)C(F)(F)F)[C@H]3[C@@H]1CC[C@@H]2O (some centres undefined)

>  <class name>
true (1)

$$$$
>  <compound>
CN(Cc1cnc2nc(N)nc(N)c2n1)c1ccc(C(=O)N[C@@H](CCC(=O)O)C(=O)O)cc1 [methotrexate]

>  <class name>
true (1)

$$$$
>  <compound>
CNC(=O)c1cccc(-c2ccc3c(N4CCOC[C@@H]4C)nc(N4CCOC[C@@H]4C)nc3n2)c1

>  <class name>
true (1)

$$$$
>  <compound>
NC1(C(=O)N[C@@H](CCO)c2ccc(Cl)cc2)CCN(c2nc[nH]c3nccc2-3)CC1

>  <class name>
true (1)

$$$$
>  <compound>
O=C(O)C1(C(=O)O)CCC1.[NH2-].[NH2-].[Pt+2]

>  <class name>
true (1)

$$$$
>  <compound>
CC(C)(C(=O)NCC(F)(F)C(F)(F)F)C(=O)N[C@@H]1C(=O)Nc2ccccc2-c2ccccc21

>  <class name>
false (0)

$$$$
>  <compound>
COc1cccc2c1C(=O)c1c(O)c3c(c(O)c1C2=O)C[C@@](O)(C(=O)CO)C[C@@H]3O[C@H]1C[C@H](N)[C@H](O)[C@H](C)O1

>  <class name>
false (0)

$$$$

----------
Collected CTG-3D luminescence at 96 h values appear next to each entry.
test system: HCI-002 (organoid from a triple-negative breast cancer xenograft); experiment: CTG-3D luminescence at 96 h relative to day-0 seeding control (ratio to day 0); higher = more growth / less cytotoxicity; PDxO 3D drug screen, 96 h, CTG-3D normalised to day-0 seeding control.; settings: 10 µM; days in culture: 191

>  <compound string>
COc1cccc2c1C(=O)c1c(O)c3c(c(O)c1C2=O)C[C@@](O)(C(=O)CO)C[C@@H]3O[C@H]1C[C@H](N)[C@H](O)[C@H](C)O1

>  <CTG-3D luminescence at 96 h>
0.0535

$$$$
>  <compound string>
Cc1nc(-c2cn3c(n2)-c2ccc(-c4cnn(C(C)(C)C(N)=O)c4)cc2OCC3)n(C(C)C)n1

>  <CTG-3D luminescence at 96 h>
0.981

$$$$
>  <compound string>
C=CC(=O)N1CCC[C@@H](n2nc(-c3ccc(Oc4ccccc4)cc3)c3c(N)ncnc32)C1

>  <CTG-3D luminescence at 96 h>
1.34

$$$$
>  <compound string>
O=C(/C=C/c1cccnc1)NCCCCC1CCN(C(=O)c2ccccc2)CC1

>  <CTG-3D luminescence at 96 h>
0.0599

$$$$
